# tested.target: Carbonic anhydrase 9 (Homo sapiens)

molecular.string	Ki [µM]
NS(=O)(=O)c1ccc(NC(=S)Nc2cccc(I)c2)cc1	0.039

====

Quick record of Ki values for Carbonic anhydrase 12 (Homo sapiens, UniProt O43570).

molecular.string	tested.target	Ki
NS(=O)(=O)c1ccc(NC(=S)Nc2cccc(I)c2)cc1	Carbonic anhydrase 12 (Homo sapiens, UniProt O43570)	4 nM
CC(C)c1ccccc1NC(=O)Nc1ccc(S(N)(=O)=O)cc1	Carbonic anhydrase 12 (Homo sapiens, UniProt O43570)	4.3 nM
